The reported measurements were obtained from ChEMBL document CHEMBL1149208.

test-system: Vitamin D3 receptor (Gallus gallus)
Sequence (O42392 whole entry): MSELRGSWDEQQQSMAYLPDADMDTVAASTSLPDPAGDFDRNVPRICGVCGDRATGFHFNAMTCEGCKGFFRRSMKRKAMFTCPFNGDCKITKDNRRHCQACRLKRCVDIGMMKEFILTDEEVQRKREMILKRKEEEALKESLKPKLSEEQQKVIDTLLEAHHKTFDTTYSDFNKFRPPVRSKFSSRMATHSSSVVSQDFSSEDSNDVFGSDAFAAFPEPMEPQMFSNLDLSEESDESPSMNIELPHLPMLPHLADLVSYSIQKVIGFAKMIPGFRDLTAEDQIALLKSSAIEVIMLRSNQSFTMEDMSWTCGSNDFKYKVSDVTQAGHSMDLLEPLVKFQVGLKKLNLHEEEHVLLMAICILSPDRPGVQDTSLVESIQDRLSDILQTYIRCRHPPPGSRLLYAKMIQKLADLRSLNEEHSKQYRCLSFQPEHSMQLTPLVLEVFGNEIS
protocol-details: In vitro relative binding affinity for chick intestinal vitamin D3 receptor compared to [3H]1
parameter: IC50 (nM)
Value expressed in nM; do not type the unit.

Task item: Consider the compound C=C1/C(=C/C=C2/CCC[C@@]3(C)C2CCC3[C@H](C)C[C@H]2C[C@](C)(O)C(=O)N2Cc2ccccc2)C[C@@H](O)C[C@@H]1O (stereo partly specified) and give its measured IC50.
Reply: 1.9
